I'd be grateful if you could share measured IC50 for these entries.
tested-on: ABHD6 (Mus musculus)
Construct: Proteomes (mouse brain membrane fraction or cell lysates); from tissue; host or cells: mouse brain membrane fraction (or cell lysates, not specified)
Sequence (Q8R2Y0 whole entry): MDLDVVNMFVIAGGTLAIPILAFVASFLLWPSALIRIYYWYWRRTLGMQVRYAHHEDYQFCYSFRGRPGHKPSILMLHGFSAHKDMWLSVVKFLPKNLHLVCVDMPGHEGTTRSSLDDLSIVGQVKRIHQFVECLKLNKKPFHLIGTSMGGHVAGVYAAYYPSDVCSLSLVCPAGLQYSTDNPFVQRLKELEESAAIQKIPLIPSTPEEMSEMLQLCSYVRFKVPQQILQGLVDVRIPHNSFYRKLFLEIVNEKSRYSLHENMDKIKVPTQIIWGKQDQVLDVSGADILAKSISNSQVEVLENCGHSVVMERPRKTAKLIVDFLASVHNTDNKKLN
assay-protocol: In vitro competitive activity-based protein profiling (gel-based, FP-Rh or HT-01 probe)
Type: biochemical
condition-label: mouse brain membrane fraction or cell lysates, 30 min preincubation at 37° C.; read-out: Mouse (IC50 value, nM) ABHD6

Query: What measured IC50 goes with CCN(Cc1cccc(C)c1)C(=O)n1cc(C(F)(F)F)cn1 [Example 247] ?
Response: 100 to 1000 nM

Query: What measured IC50 goes with Cc1cnn(C(=O)N2CCN(C(c3ccc(Cl)cc3)c3ccc(Cl)cc3)CC2)c1 [Example 117] ?
Response: > 1000 nM

Query: What measured IC50 goes with O=C(N1CCN(Cc2cccc(Cl)c2)CC1)n1cc(Cl)cn1 [Example 225] ?
Response: 100 to 1000 nM

Query: What measured IC50 goes with CN(Cc1cccc(-c2ccncc2)c1)C(=O)n1cc(Cl)cn1 [Example 220] ?
Response: 100 to 1000 nM

Query: What measured IC50 goes with CNC(=O)c1cnn(C(=O)N2CCN(Cc3ccc(Cl)cc3)CC2)c1 [Example 223] ?
Response: < 100 nM

* * *

tested-on: MAGL (Mus musculus)
Construct: Proteomes (mouse brain membrane fraction or cell lysates); from tissue; host or cells: mouse brain membrane fraction (or cell lysates, not specified)
Sequence (O35678 whole entry): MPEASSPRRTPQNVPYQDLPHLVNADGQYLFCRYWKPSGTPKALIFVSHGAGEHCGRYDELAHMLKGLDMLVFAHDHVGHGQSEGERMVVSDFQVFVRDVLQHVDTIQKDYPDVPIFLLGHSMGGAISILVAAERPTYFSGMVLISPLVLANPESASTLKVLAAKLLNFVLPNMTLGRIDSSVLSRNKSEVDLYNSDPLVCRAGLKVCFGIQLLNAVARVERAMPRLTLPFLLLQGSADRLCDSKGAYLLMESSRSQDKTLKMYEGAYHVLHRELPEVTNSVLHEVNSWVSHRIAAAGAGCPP
assay-protocol: In vitro competitive activity-based protein profiling (gel-based, FP-Rh or HT-01 probe)
Assay type: biochemical
condition-label: 1 μM inhibitor
I'd be grateful if you could share measured inhibition at 1 µM for these entries.

Query: Under MAGL (Mus musculus): inhibition at 1 µM value of O=C(N1CCN(Cc2ccccc2Cl)CC1)n1cc(Cl)cn1 ?
Response: > 75%

Query: Under MAGL (Mus musculus): inhibition at 1 µM value of O=C(N1CCN(Cc2ccccc2)CC1)n1cc(C(F)(F)F)cn1 ?
Response: > 75%

Query: Under MAGL (Mus musculus): inhibition at 1 µM value of O=C(c1ccccc1)N1CCN(C(=O)n2cc(Cl)cn2)CC1 ?
Response: 25 to 75%

Query: Under MAGL (Mus musculus): inhibition at 1 µM value of O=C(N1CCN(Cc2ccc(Cl)cc2N2CCC3(CCOCC3)C2)CC1)n1cc(Cl)cn1 ?
Response: > 75%

Query: Under MAGL (Mus musculus): inhibition at 1 µM value of O=C(c1cnn(C(=O)N2CCN(Cc3nccs3)CC2)c1)N1CCCCC1 ?
Response: < 25%

* * *

tested-on: PLA2G7 (Mus musculus, UniProt Q60963)
Construct: Proteomes (mouse brain membrane fraction or cell lysates); from tissue; host or cells: mouse brain membrane fraction (or cell lysates, not specified)
Sequence (Q60963 22-440): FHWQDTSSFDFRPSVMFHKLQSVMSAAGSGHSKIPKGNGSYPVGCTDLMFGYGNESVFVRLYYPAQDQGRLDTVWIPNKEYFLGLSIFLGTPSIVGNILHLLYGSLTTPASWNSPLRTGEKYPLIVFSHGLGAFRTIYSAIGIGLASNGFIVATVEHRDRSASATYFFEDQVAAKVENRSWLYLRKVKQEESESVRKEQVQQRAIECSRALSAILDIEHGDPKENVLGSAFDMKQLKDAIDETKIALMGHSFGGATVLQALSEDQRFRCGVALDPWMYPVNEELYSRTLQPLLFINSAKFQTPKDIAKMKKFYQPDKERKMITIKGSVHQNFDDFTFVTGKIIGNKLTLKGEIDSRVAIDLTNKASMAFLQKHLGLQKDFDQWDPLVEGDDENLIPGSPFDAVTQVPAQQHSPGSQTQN
assay-protocol: In vitro competitive activity-based protein profiling (gel-based, FP-Rh or HT-01 probe)
Assay type: biochemical
condition-label: 1 μM inhibitor; read-out: % Inhibition at 1 μM, D = PLA2G7
endpoint-name: inhibition at 1 µM

Query: Under PLA2G7 (Mus musculus, UniProt Q60963): inhibition at 1 µM value of Cc1cnn(C(=O)N2CCCN(C(=O)OC(C)(C)C)CC2)c1 ?
Response: < 25%

Query: Under PLA2G7 (Mus musculus, UniProt Q60963): inhibition at 1 µM value of Cc1cnn(C(=O)N2CCN(Cc3ccc(OCc4ccccc4)cc3)CC2)c1 ?
Response: < 25%

Query: Under PLA2G7 (Mus musculus, UniProt Q60963): inhibition at 1 µM value of O=C(c1cnn(C(=O)N2CCN(Cc3nccs3)CC2)c1)N1CCC1 ?
Response: < 25%

Query: Under PLA2G7 (Mus musculus, UniProt Q60963): inhibition at 1 µM value of O=C(c1cnn(C(=O)N2CCN(Cc3nccs3)CC2)c1)N1CCCC1 ?
Response: < 25%

Query: Under PLA2G7 (Mus musculus, UniProt Q60963): inhibition at 1 µM value of N#Cc1cnn(C(=O)Nc2ccc3ccccc3c2)c1 ?
Response: < 25%

Query: Under PLA2G7 (Mus musculus, UniProt Q60963): inhibition at 1 µM value of O=C(N1CCN(Cc2ccc(-c3ccccc3)cc2Cl)CC1)n1cc(C(F)(F)F)cn1 ?
Response: 25 to 75%

Query: Under PLA2G7 (Mus musculus, UniProt Q60963): inhibition at 1 µM value of CCN(Cc1ccccc1Cl)C(=O)n1cc(Cl)cn1 ?
Response: < 25%

Query: Under PLA2G7 (Mus musculus, UniProt Q60963): inhibition at 1 µM value of COc1cc(-c2ccccc2)ccc1CN1CCN(C(=O)n2cc(C#N)cn2)CC1 ?
Response: > 75%

Query: Under PLA2G7 (Mus musculus, UniProt Q60963): inhibition at 1 µM value of O=C(N1CCN(Cc2cccc(Cl)c2)CC1)n1cc(Cl)cn1 ?
Response: < 25%

* * *

tested-on: FAAH (Mus musculus)
Construct: Proteomes (mouse brain membrane fraction or cell lysates); from tissue; host or cells: mouse brain membrane fraction (or cell lysates, not specified)
Sequence (O08914 whole entry): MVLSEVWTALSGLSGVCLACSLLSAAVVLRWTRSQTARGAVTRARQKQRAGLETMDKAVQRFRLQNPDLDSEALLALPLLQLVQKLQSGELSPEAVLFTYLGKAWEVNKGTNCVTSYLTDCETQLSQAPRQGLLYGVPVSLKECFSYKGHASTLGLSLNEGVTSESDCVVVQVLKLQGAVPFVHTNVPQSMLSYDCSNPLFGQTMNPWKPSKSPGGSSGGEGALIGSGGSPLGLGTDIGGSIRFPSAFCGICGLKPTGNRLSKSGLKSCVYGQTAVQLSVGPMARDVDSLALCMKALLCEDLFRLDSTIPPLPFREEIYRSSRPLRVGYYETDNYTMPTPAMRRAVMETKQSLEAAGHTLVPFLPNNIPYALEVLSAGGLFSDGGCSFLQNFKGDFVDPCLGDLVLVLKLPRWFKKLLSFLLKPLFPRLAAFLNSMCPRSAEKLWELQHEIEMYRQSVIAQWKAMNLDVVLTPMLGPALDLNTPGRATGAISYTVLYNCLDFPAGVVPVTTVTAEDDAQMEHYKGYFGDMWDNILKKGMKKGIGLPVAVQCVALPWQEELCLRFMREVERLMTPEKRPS
assay-protocol: In vitro competitive activity-based protein profiling (gel-based, FP-Rh or HT-01 probe)
Assay type: biochemical
condition-label: 10 μM inhibitor; read-out: % Inhibition at 10 μM, B = FAAH
endpoint-name: inhibition at 10 µM

Query: What measured inhibition at 10 µM goes with CC(=O)N(C)CCN(C)C(=O)n1cc(Cl)cn1 [Example 193] ?
Response: < 25%

Query: What measured inhibition at 10 µM goes with O=C(c1cnn(C(=O)N2CCN(Cc3cccnc3)CC2)c1)N1CCC1 [Example 88] ?
Response: 25 to 75%

Query: What measured inhibition at 10 µM goes with CN(CCN(C)C(=O)n1cc(C(F)(F)F)cn1)C(=O)c1ccccc1 [Example 160] ?
Response: > 75%

Query: What measured inhibition at 10 µM goes with COc1cc(-c2ccccc2)ccc1CN1CCN(C(=O)n2cc(Cl)cn2)CC1 [Example 141] ?
Response: > 75%

Query: What measured inhibition at 10 µM goes with O=C(N1CCN(c2ccc(N3CCOCC3)cc2)CC1)n1cc(C(F)(F)F)cn1 [Example 238] ?
Response: > 75%

* * *

tested-on: ABHD6 (Mus musculus)
Construct: Proteomes (mouse brain membrane fraction or cell lysates); from tissue; host or cells: mouse brain membrane fraction (or cell lysates, not specified)
assay-protocol: In vitro competitive activity-based protein profiling (gel-based, FP-Rh or HT-01 probe)
Type: biochemical
condition-label: 1 μM inhibitor; read-out: % Inhibition at 1 μM, C = ABHD6
I'd be grateful if you could share measured inhibition at 1 µM for these entries.

Query: What measured inhibition at 1 µM goes with Cc1cc(N2CCN(C(=O)n3cc(C(F)(F)F)cn3)CC2)c2ccccc2n1 ?
Response: > 75%

Query: What measured inhibition at 1 µM goes with O=C(N1CCN(C(c2ccc3c(c2)COC3)c2ccc3c(c2)COC3)CC1)n1cc(Cl)cn1 ?
Response: > 75%

Query: What measured inhibition at 1 µM goes with CC(C)(C)OC(=O)N1CCCN(C(=O)n2cccn2)CC1 ?
Response: < 25%

Query: What measured inhibition at 1 µM goes with CN(CCN(C)C(=O)n1cc(Cl)cn1)C(=O)c1ccccc1 ?
Response: < 25%

Query: What measured inhibition at 1 µM goes with Cc1cnn(C(=O)N2CCN(Cc3ccc(-c4ccccc4)cc3)CC2)c1 ?
Response: 25 to 75%

Query: What measured inhibition at 1 µM goes with O=C(c1cnn(C(=O)N2CCN(Cc3nccs3)CC2)c1)N1CCC1 ?
Response: < 25%

Query: What measured inhibition at 1 µM goes with CN(CCN(C)S(C)(=O)=O)C(=O)n1cc(C#N)cn1 ?
Response: < 25%

* * *

I'd be grateful if you could share measured inhibition at 10 µM for these entries.
tested-on: MAGL (Mus musculus)
Construct: Proteomes (mouse brain membrane fraction or cell lysates); from tissue; host or cells: mouse brain membrane fraction (or cell lysates, not specified)
assay-protocol: In vitro competitive activity-based protein profiling (gel-based, FP-Rh or HT-01 probe)
Format: biochemical
condition-label: 10 μM inhibitor

Query: What measured inhibition at 10 µM goes with CN1CCN(C(=O)n2cc(C(F)(F)F)cn2)CC1 ?
Response: > 75%

Query: What measured inhibition at 10 µM goes with O=C(N1CCCC1)n1cc(C(F)(F)F)cn1 ?
Response: > 75%

Query: What measured inhibition at 10 µM goes with O=C(N1CCN(Cc2ccccn2)CC1)n1cc(-c2ccccc2)cn1 ?
Response: < 25%

Query: What measured inhibition at 10 µM goes with N#Cc1cnn(C(=O)NCCCCc2ccccc2)c1 ?
Response: 25 to 75%

Query: What measured inhibition at 10 µM goes with O=C(N1CCN(c2ccccc2N2CCOCC2)CC1)n1cc(C(F)(F)F)cn1 ?
Response: > 75%

Query: What measured inhibition at 10 µM goes with CC(=O)N(C)CCN(C)C(=O)n1cc(C)cn1 ?
Response: < 25%

Query: What measured inhibition at 10 µM goes with CCN(Cc1cccc(OC)c1)C(=O)n1cc(Cl)cn1 ?
Response: > 75%

Query: What measured inhibition at 10 µM goes with N#Cc1cnn(C(=O)N2CCN(Cc3ccc(OCc4ccccc4)cc3)CC2)c1 ?
Response: > 75%

Query: What measured inhibition at 10 µM goes with Cc1cnn(C(=O)N2CCN(S(C)(=O)=O)CC2)c1 ?
Response: < 25%

Query: What measured inhibition at 10 µM goes with Cc1cc(N2CCN(C(=O)n3cc(C#N)cn3)CC2)c2ccccc2n1 ?
Response: > 75%

The reported numbers originate from patent US10093630B2.
